Target: T1, mouse IL-17A (mouse, UniProt Q62386 26-158, limits assumed)
T1 construct: In SPR it was injected in solution, and no biotinylation is mentioned there; also called mIL-17A; mIL17A
T1 sequence (looked up): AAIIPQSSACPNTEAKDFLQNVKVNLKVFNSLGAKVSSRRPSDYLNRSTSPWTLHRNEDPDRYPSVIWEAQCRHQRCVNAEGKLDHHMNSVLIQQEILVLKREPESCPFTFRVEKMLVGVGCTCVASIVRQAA
Assay: SPR (ProteOn XPR-36), clone amine-coupled on chip, mIL-17A in solution, 1:1 Langmuir fit
Below, each entry is listed alongside its reported kon.

Solved entries:
binder	kon
TP1KR9P62-D3 (designed binder, also called TCL14-His fusion protein) MLPAPKNLVVSRVTEDSARLSWTAPDAAFDSFAIEYFEDWWSGEAIVLTVPGSERSYDLTLKPGTEYSVSIRGVKGGYPSSPLSAIFTT	110000 M⁻¹ s⁻¹
TP1KR9P62-C3 (designed binder, also called TCL14-His fusion protein) MLPAPKNLVVSRVTEDSARLSWTAPDAAFDSFAIEYFEDWWSGEAIVLTVPGSERSYDLTGLKPGTEYSVTIRGVKGGPPSSPLSAIFTT	281000 M⁻¹ s⁻¹

Now for the binder whose kon we want.
Item under review: TP1KR9P62-H10 (designed binder, also called TCL14-His fusion protein) MLPAPKNLVVSRVTEDSARLSWTAPDAAFDSFAIEYFEDWWSGEAIVLTVPGSERSYDLTGLKPGTEYSVSIRGVKGGHPSVPLSAIFTT . Reported kon?
438000 M⁻¹ s⁻¹

Reference for the values: patent US20160041182A1
